Reported % Inhibition values follow for various substances
- Tested on: human Factor 7 mRNA
- assayComment: Antisense inhibition of human Factor 7 mRNA in HepB3 cells, 50 nM antisense oligonucleotide, lipofectin
- Assay type: cell-based
- measurementContext: lipofectin, 50 nM antisense oligonucleotide, approximately 24 hours, Factor 7 mRNA by real-time RT-PCR (RTS 2927), relative to untreated control
Strand notation (5' to 3'): a small letter for the sugar, then the base; units joined by * are phosphorothioate-linked, units joined directly phosphodiester-linked; [ ] holds rarer units or linkages, { } end groups; capitals alone tell only the bases. e = 2'-O-(2-methoxyethyl) (MOE); [5mC] = 5-methylcytosine; d = 2'-deoxy (DNA)
// units = %; emit number, no label

416443 (antisense eG*eA*eG*eG*e[5mC]*dA*dG*dA*dA*dG*d[5mC]*dA*dG*dA*dT*eA*eT*eA*eG*eG) [compound 416443] : 17
416569 (antisense eG*e[5mC]*e[5mC]*eT*eG*dG*dT*dG*dT*dG*d[5mC]*dA*d[5mC]*dA*d[5mC]*eA*eT*eT*eG*eT) [compound 416569] : 12

Now consider a different substance.
Give its % Inhibition value. Item: 416506 (antisense e[5mC]*eT*eT*eT*eA*dA*dA*dA*dT*d[5mC]*dA*dG*dT*dT*dT*e[5mC]*eA*e[5mC]*eA*e[5mC]) [compound 416506] 18
